For each record, write down the corresponding Pseudovirus Neturalization.
biological target: SARS-CoV-2 "Delta" B.1.617.2 full-length Spike protein on pseudovirus (SARS-CoV-2, UniProt P0DTC2 14-1273); test: cell-based or functional assay
Numbers only; they are read as µg/mL.

The binder listed as AB-009271 (antibody, V domains shown) VH: EVQLVESGGGLIQPGGSLRLSCAASGFIVSSNYMSWVRQAPGKGLEWVSVIYSGGSTYYADSVKGRFTISRDNSKNTLYLQMNSLRAEDTAVYYCARDYGDFYFDYWGQGTLVTVSS VL: EIVMTQSPATLSVSPGERATLSCRASQSVSSNLAWYQQKPGQAPRLLIYGASTRATGIPARFSGSGSGTEFTLTISSLQSEDFAVYYCQQYYNWPRTFGQGTKVEIK has a reported Pseudovirus Neturalization of 0.012

The binder listed as AB-009620 (antibody, V domains shown) VH: QITLKESGPTLVKPTQTLTLTCTFSGFSLSTSGVGVGWIRQPPGKALEWLALIYWDDDKRYSPSLKSRLTITKDTSKNQVVLTMTNMDPVDTATYYCAHHEVATVFDYWGQGTLVTVSS VL: QSALTQPASVSGSPGQSITISCTGTSSDVGAYNYVSWYQQHPGKAPKLMIYEVSNRPSGVSNRFSGSKSGNTASLTISGLQAEDEADYYCSSYTSSSTVFGGGTKLTVL has a reported Pseudovirus Neturalization of 0.519

// provenance: patent US20240327505A1
